# Tested on: MDA-MB-231 breast
# test-protocol: NCI tumour cell line growth inhibition, 48 h; in the data active = GI50 below about 0.43 µM; inactive = the rest
Outcomes: active, inactive

• c1ccc([P+](CCC[P+](c2ccccc2)(c2ccccc2)c2ccccc2)(c2ccccc2)c2ccccc2)cc1 = inactive
• ClC1=C(Cl)C(Cl)=C(Cl)C1=Cc1ccc(Cl)cc1Cl = active
• Clc1ccc2c(NCCN3CCN(c4ccnc(N5CCCC5)n4)CC3)ccnc2c1 = inactive
• CCCCc1oc2ccccc2c1C(=O)c1cc(I)c(OCCN(CC)CC)c(I)c1 = inactive
• Cc1cc(Cl)ccc1Nc1nc(C(F)(F)F)ccc1C(=O)N/N=C/c1ccc(N(C)C)cc1 = inactive
• CO[C@H]1/C=C/C[C@H](C)[C@@H](C)S(=O)(=O)NC(=O)c2ccc3c(c2)N(C[C@@H]2CC[C@H]21)C[C@@]1(CCCc2cc(Cl)ccc21)CO3 = inactive
• COc1cc(C(=O)/C=C/c2c(-c3cccs3)nc3ccccn23)cc(OC)c1OC = inactive
• O=C1C(Cl)=C(Nc2ccc3c(c2NC2=C(Cl)C(=O)c4ccccc4C2=O)C(=O)c2ccccc2C3=O)C(=O)c2ccccc21 = inactive
• O=C1/C(=C/c2ccc(C(F)(F)F)cc2)COc2ccc(O)cc21 = inactive

Just for reference, PubChem BioAssay (NCI) is where these values come from.
